- Test system: NCI-H322M lung
- test name: NCI-60 one-dose screen, 48 h (100 = growth as untreated, 0 = no growth, -100 = all killed)
- run parameters: 10 µM unless noted
This is part of a sample that, as a whole, favours compounds with a hit. Of some 83,000 tested, about 20% had one in any assay.
measure name: growth (%)

>>> result("CN(C)C/C=C/C(=O)Nc1cc2c(Nc3ccc(F)c(Cl)c3)ncnc2cc1O[C@H]1CCOC1")
-16.4
>>> result("CCn1c(-c2nonc2N)nc2c(C#CC(C)(C)O)ncc(OC[C@H]3CCCNC3)c21")
75.2
>>> result("COc1cc2c(Oc3ccc(NC(=O)C4(C(=O)Nc5ccc(F)cc5)CC4)cc3F)ccnc2cc1OCCCN1CCOCC1")
-1.77
>>> result("COc1cc2nccc(Oc3ccc(NC(=O)C4(C(=O)Nc5ccc(F)cc5)CC4)cc3)c2cc1OC")
12.1
>>> result("NC(=O)c1n[nH]n2c1nc(=O)c1c3c(sc12)CCCC3")
101
